- Experimental Target: human CD33 E84A (human, UniProt P20138 18-364)
- Sequence (P20138 18-364 E84A limits assumed): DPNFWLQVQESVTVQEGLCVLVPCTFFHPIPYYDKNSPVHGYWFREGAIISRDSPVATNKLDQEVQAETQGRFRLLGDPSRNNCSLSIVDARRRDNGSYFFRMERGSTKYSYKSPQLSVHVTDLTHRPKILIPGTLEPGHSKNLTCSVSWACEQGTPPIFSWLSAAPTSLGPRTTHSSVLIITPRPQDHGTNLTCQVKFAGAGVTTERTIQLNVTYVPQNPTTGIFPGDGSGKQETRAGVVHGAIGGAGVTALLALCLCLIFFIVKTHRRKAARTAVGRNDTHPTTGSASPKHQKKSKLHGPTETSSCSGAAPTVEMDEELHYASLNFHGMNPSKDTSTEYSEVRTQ
- Run Description: alanine scan, flow cytometry;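 further: HEK293-T cells transiently expressing single-residue alanine mutants of CD33 (alanine swapped to serine), antibody binding read by fluorescence in duplicate, background-subtracted, expressed relative to wild-type CD33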
Measurement Name: Mean % WT Binding (% WT)

Refmab #3 (antibody, V domains shown, Full-length format is human IgG1 Fc silent (PG-LALA); The alanine scan used IgG or Fab) VH: QVQLVQSGAEVKKPGSSVKVSCKASGYTFTDYNMHWVRQAPGQGLEWIGYIYPYNGGTGYNQKFKSKATITADESTNTAYMELSSLRSEDTAVYYCARGRPAMDYWGQGTLVTVSS VL: DIQMTQSPSSLSASVGDRVTITCRASESVDNYGISFMNWFQQKPGKAPKLLIYAASNQGSGVPSRFSGSGSGTDFTLTISSLQPDDFATYYCQQSKEVPWTFGQGTKVEIK :: 137
Refmab #4 (antibody, V domains shown, Full-length format is human IgG1 Fc silent (PG-LALA); The alanine scan used IgG or Fab) VH: QVQLVQSGAEVKKPGESVKVSCKASGYTFTNYGMNWVKQAPGQGLEWMGWINTYTGEPTYADKFQGRVTMTTDTSTSTAYMEIRNLGGDDTAVYYCARWSWSDGYYVYFDYWGQGTSVTVSS VL: DIVMTQSPDSLTVSLGERTTINCKSSQSVLDSSTNKNSLAWYQQKPGQPPKLLLSWASTRESGIPDRFSGSGSGTDFTLTIDSPQPEDSATYYCQQSAHFPITFGQGTRLEIK :: 120
Refmab #1 (antibody, V domains shown, Full-length format is human IgG1 (Absolute Antibody Ab00283-10.0); The alanine scan used IgG or Fab; also called hP67.6) VH: EVQLVQSGAEVKKPGSSVKVSCKASGYTITDSNIHWVRQAPGQSLEWIGYIYPYNGGTDYNQKFKNRATLTVDNPTNTAYMELSSLRSEDTAFYYCVNGNPWLAYWGQGTLVTVSS VL: DIQLTQSPSTLSASVGDRVTITCRASESLDNYGIRFLTWFQQKPGKAPKLLMYAASNQGSGVPSRFSGSGSGTEFTLTISSLQPDDFATYYCQQTKEVPWSFGQGTKVEVK :: 92.2
Refmab #2 (antibody, V domains shown, Full-length format is human IgG1 Fc silent (PG-LALA); The alanine scan used IgG or Fab) VH: QVQLVQSGAEVKKPGSSVKVSCKASGGTFSDYAISWVRQAPGQGLEWMGRIIPILGVADYAQKFQGRVTITADKSTRTAYMELSSLRSEDTAVYYCARNWADAFDIWGQGTMVTVSS VL: DIQLTQSPSSLSASVGDRVTITCRASQGISSVLAWYQQKPGKAPKLLIYDASSLESGVPSRFSGSGSGTDFTLTISSLQPEDFATYYCQQFDSSITFGQGTKLEIK :: 114
